src = patent US20180057505A1

biological target: PAR2 (HT-29 cells) (Homo sapiens); construct: host or cells: HT-29; test: Ca FLIPR TETRA assay, ANTAGONIST mode, activator 3.1 U/mL trypsin; assay type: cell-based; settings: HT-29 cells, activator 3.1 U/mL trypsin; maximal antagonist concentration per Method (A: 0.1, 1 or 2 μM; B: 50 μM)
Sequence (P55085 26-397): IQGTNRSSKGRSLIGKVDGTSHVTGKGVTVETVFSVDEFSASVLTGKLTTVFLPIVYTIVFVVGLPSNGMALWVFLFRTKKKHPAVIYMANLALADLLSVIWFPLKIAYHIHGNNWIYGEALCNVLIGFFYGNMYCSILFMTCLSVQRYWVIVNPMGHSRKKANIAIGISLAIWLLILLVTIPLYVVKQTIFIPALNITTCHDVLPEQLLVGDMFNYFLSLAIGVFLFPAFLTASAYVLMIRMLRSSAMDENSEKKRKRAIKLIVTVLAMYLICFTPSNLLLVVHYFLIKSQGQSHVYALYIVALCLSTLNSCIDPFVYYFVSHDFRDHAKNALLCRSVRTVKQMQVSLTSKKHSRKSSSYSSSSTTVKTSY
Quantity: IC50 (nM)

The examples below pair each entry with its known result.
>  <Molecule>
CC1(c2cc(-c3ccc(F)cc3)nc3cc(C(=O)N4CCN(C(=O)C5CC5)CC4(C)C)oc23)CC1 [Example I-49]

>  <System Under Test>
PAR2 (HT-29 cells) (Homo sapiens)

>  <Quantity>
IC50

>  <Measured Result>
12

$$$$
>  <Molecule>
CC(C)(C)c1cc(-c2ccc(F)cc2)nc2cc(C(=O)N3CCN(C(=O)c4ccn[nH]4)CC3(C)C)oc12 [Example I-152]

>  <System Under Test>
PAR2 (HT-29 cells) (Homo sapiens)

>  <Quantity>
IC50

>  <Measured Result>
7.7

$$$$
>  <Molecule>
COC(=O)C1CC(C(=O)N2CCN(C(=O)c3cc4nc(-c5ccc(F)cc5)cc(C(C)(C)C)c4o3)C(C)(C)C2)C1 (stereo not shown) [Example I-188]

>  <System Under Test>
PAR2 (HT-29 cells) (Homo sapiens)

>  <Quantity>
IC50

>  <Measured Result>
6

$$$$
>  <Molecule>
CC(C)(C)c1cc(C2CCCC2)nc2cc(C(=O)N3CCNC(=O)C3(C)C)oc12 [Example I-215]

>  <System Under Test>
PAR2 (HT-29 cells) (Homo sapiens)

>  <Quantity>
IC50

>  <Measured Result>
300

$$$$
>  <Molecule>
Cc1cnc(N2CCN(C(=O)c3cc4nc(-c5ccc(Cl)cc5)cc(C(C)(C)C)c4o3)C(C)(C)C2)cn1 [Example I-264]

>  <System Under Test>
PAR2 (HT-29 cells) (Homo sapiens)

>  <Quantity>
IC50

>  <Measured Result>
18

$$$$
>  <Molecule>
CN1CCN(C(=O)c2cc3nc(-c4ccc(F)cc4)cc(C(C)(C)C)c3o2)C(C)(C)C1=O [Example I-206]

>  <System Under Test>
PAR2 (HT-29 cells) (Homo sapiens)

>  <Quantity>
IC50

>  <Measured Result>
4

$$$$
>  <Molecule>
CC(C)c1cc(-c2ccc(F)cc2)nc2cc(C(=O)N3CCN(C(=O)OC(C)(C)C)CC3(C)C)oc12 [Example I-6]

>  <System Under Test>
PAR2 (HT-29 cells) (Homo sapiens)

>  <Quantity>
IC50

>  <Measured Result>
4.2

$$$$
>  <Molecule>
CC1(c2cc(-c3ccc(F)cc3)nc3cc(C(=O)N4CCN(C(=O)C5CCOC5)CC4(C)C)oc23)CC1 (stereo not shown) [Example I-60]

>  <System Under Test>
PAR2 (HT-29 cells) (Homo sapiens)

>  <Quantity>
IC50

>  <Measured Result>
67

$$$$

A. CC(C)(C)c1cc(C2CCC(F)(F)CC2)nc2cc(C(=O)N3CCN(C(=O)C4CC(O)(C(F)(F)F)C4)C(=O)C3(C)C)oc12 (stereo not shown) [Example I-224]
B. CC(C)(C)c1cc(-c2ccc(Cl)cc2)nc2cc(C(=O)N3CCN(c4ccccn4)CC3(C)C)oc12 [Example I-272]
Pick the one with the larger IC50: A vs B // return label of chosen record
B

A. CC(C)c1cc(-c2ccc(F)cc2)nc2cc(C(=O)N3CCN(C(=O)c4ccno4)[C@@H](C)C3)oc12 [Example I-86]
B. Cn1cc(C(=O)O)c(C(=O)N2CCN(C(=O)c3cc4nc(C5CC6(CCC6)C5)cc(C(C)(C)C)c4o3)C(C)(C)C2)n1 [Example I-291]
Pick the one with the larger IC50: A vs B // return label of chosen record
A
